- System: Saccharomyces cerevisiae BY4741 SeMeCo community
- procedureText: z-score of subpopulation abundance vs DMSO median, subpopulation auxotrophic for HUM; higher = larger share of this subpopulation than in DMSO controls
- conditionNotes: 10 µM; 24 h; SM minimal medium; subpopulation (auxotrophy): HUM
Where a name gives a salt, the structure may show the parent alone.
Each entry gets no (0) if its z-score of subpopulation abundance stays under -0.09, and yes (1) if its z-score of subpopulation abundance is -0.09 or above.

CCCCCCCCOc1ccccc1C(=O)Nc1ccc(C(=O)OCC[N+](C)(CC)CC)cc1 [Otilonium Bromide]: yes (1)
C#C[C@]1(O)CC[C@H]2[C@@H]3CCC4=CCCC[C@@H]4[C@H]3CC[C@@]21C: yes (1)
CCCCc1oc2ccc(NS(C)(=O)=O)cc2c1C(=O)c1ccc(OCCCN(CCCC)CCCC)cc1 [Dronedarone HCl]: no (0)
CC(C)[C@H](N)C(=O)OCC(CO)OCn1cnc2c(=O)[nH]c(N)nc21 (some centres undefined) [Valganciclovir HCl]: no (0)
CCOc1ccc2ccccc2c1C(=O)N[C@@H]1C(=O)N2[C@@H]1SC(C)(C)[C@@H]2C(=O)O [Nafcillin Sodium]: yes (1)
CN1CCN(CCCN2c3ccccc3Sc3ccc(C(F)(F)F)cc32)CC1 [Trifluoperazine 2HCl]: yes (1)
NCC[C@H](O)C(=O)N[C@@H]1C[C@H](N)[C@@H](O[C@H]2O[C@H](CN)[C@@H](O)[C@H](O)[C@H]2O)[C@H](O)[C@H]1O[C@H]1O[C@H](CO)[C@@H](O)[C@H](N)[C@H]1O [Amikacin hydrate]: no (0)
COC(=O)C1=C(C)NC(C)=C(C(=O)OC(C)(C)CN(C)CCC(c2ccccc2)c2ccccc2)C1c1cccc([N+](=O)[O-])c1 (centres undefined) [Lercanidipine hydrochloride]: yes (1)
CO[C@H]1C[C@@H]2CC[C@@H](C)[C@@](O)(O2)C(=O)C(=O)N2CCCC[C@H]2C(=O)O[C@H]([C@H](C)C[C@@H]2CC[C@H](n3cnnn3)[C@H](OC)C2)CC(=O)[C@H](C)/C=C(\C)[C@@H](O)[C@@H](OC)C(=O)[C@H](C)C[C@H](C)/C=C/C=C/C=C/1C: yes (1)
CN[C@@H]1[C@@H](O[C@H]2O[C@H](CO)[C@@H](N)[C@H](O)[C@H]2O)OC2C[C@@H](N)[C@@H](O[C@H]3[C@H](O)[C@@H](O)[C@H](N)C[C@@H]3N)OC2[C@@H]1O (some centres undefined) [Apramycin Sulfate]: yes (1)
C=CCc1ccc(O)c(-c2ccc(O)c(CC=C)c2)c1: no (0)
C[C@](N)(Cc1ccc(O)c(O)c1)C(=O)O: no (0)
CCCCNc1ccc(C(=O)OCCN(C)C)cc1 [Tetracaine HCl]: yes (1)
CC1(C)S[C@@H]2[C@H](NC(=O)[C@H](N)c3ccccc3)C(=O)N2[C@H]1C(=O)OCOC(=O)[C@@H]1N2C(=O)C[C@H]2S(=O)(=O)C1(C)C [Sultamicillin Tosylate]: yes (1)
Cc1onc(-c2ccccc2)c1-c1ccc(S(N)(=O)=O)cc1: no (0)
COC(=O)C1=C(C#N)NC(C)=C(C(=O)OC(C)C)C1c1cccc([N+](=O)[O-])c1 (centres undefined): no (0)
Cc1onc(-c2ccccc2Cl)c1C(=O)N[C@@H]1C(=O)N2[C@@H]1SC(C)(C)[C@@H]2C(=O)O [Cloxacillin Sodium]: yes (1)
COCCOC(=O)C1=C(C)NC(C)=C(C(=O)OC(C)C)C1c1cccc([N+](=O)[O-])c1 (centres undefined): no (0)
CCn1cc(C(=O)O)c(=O)c2ccc(C)nc21: no (0)
O=c1ccn(C2CC(O)C(CO)O2)c(=O)[nH]1 (centres undefined): no (0)
CCOC(=O)c1ccc(N)cc1 [Benzocaine]: no (0)
CO/N=C(\C(=O)N[C@@H]1C(=O)N2C(C(=O)[O-])=C(C[n+]3cccc4c3CCC4)CS[C@H]12)c1csc(N)n1 [Cefpirome sulfate]: yes (1)
CC[C@@H](CO)NCCN[C@@H](CC)CO [Ethambutol 2HCl]: yes (1)
Cc1onc(-c2ccccc2)c1C(=O)N[C@@H]1C(=O)N2[C@@H]1SC(C)(C)[C@@H]2C(=O)O [Oxacillin sodium monohydrate]: yes (1)
OCCN1CCN(CCCN2c3ccccc3Sc3ccc(C(F)(F)F)cc32)CC1 [Fluphenazine dihydrochloride]: no (0)
C[C@H]1c2cccc(O)c2C(O)=C2C(=O)[C@]3(O)C(O)=C(C(N)=O)C(=O)[C@@H](N(C)C)[C@@H]3[C@@H](O)[C@@H]21 [Doxycycline monohydrate]: no (0)
CN(C)CCCN1c2ccccc2Sc2ccc(Cl)cc21 [Chlorpromazine HCl]: yes (1)
